- TEST TARGET: 14-3-3ζ (Homo sapiens)
- Construct: Both full-length 14-3-3ζ and 14-3-3ζΔC12 were expressed as N-terminally His-tagged protein; His tag (TEV-cleavable) (N, cleaved yes); made in house; host or cells: Escherichia coli BL21 (DE3) pLysS
- Sequence (P63104 whole entry): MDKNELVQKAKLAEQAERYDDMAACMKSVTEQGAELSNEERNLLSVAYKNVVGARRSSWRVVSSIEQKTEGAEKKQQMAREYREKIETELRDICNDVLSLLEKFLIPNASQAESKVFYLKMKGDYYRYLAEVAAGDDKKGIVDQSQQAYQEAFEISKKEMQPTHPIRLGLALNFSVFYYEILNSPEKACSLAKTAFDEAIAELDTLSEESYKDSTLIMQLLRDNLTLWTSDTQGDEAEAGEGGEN
- METHOD: ITC of Cby peptides titrated into 14-3-3ζ
- Type: binding
- TEST PARAMETERS: 298.15 K, pH 6.8, Table 1 set of duplicate experiments
Square brackets hold non-standard residues; d marks the D form. Peptide text beside a SMILES is read from it. pS = N[C@@H](COP(=O)(O)O)C(=O)O

{"MOLECULE": "CC(=O)N[C@@H](CCCNC(=N)N)C(=O)N[C@@H](CCCCN)C(=O)N[C@@H](CO)C(=O)N[C@@H](C)C(=O)N[C@@H](COP(=O)(O)O)C(=O)N[C@@H](CC(C)C)C(=O)N1CCC[C@H]1C(N)=O [Cby 7-mer S22P] (Ac-RKSA[pS]LP-NH2)", "TEST TARGET": "14-3-3ζ (Homo sapiens)", "UNIT OF MEASURE": "kcal/mol", "ΔG": -7.55}
